System: MRSA KS1
assay: MIC, broth microdilution, MRSA KS1
Assay type: cell-based, Staphylococcus aureus
measurement-setup: MRSA KS1; ratio of MIC of vancomycin and MIC of analogue
Measured MIC-fold improvement vs. vancomycin, listed per entry.
API note: the answer field is a bare number with no unit suffix.

given-smiles | MIC-fold improvement vs. vancomycin
CN[C@H](CC(C)C)C(=O)N[C@H]1C(=O)N[C@@H](CC(N)=O)C(=O)N[C@H]2C(=O)N[C@H]3C(=O)N[C@H](C(=O)N[C@H](C(=O)NCC(=O)Nc4ccc(N5CCOCC5)cc4)c4cc(O)cc(O)c4-c4cc3ccc4O)[C@H](O)c3ccc(c(Cl)c3)Oc3cc2cc(c3O[C@@H]2O[C@H](CO)[C@@H](O)[C@H](O)[C@H]2O[C@H]2C[C@](C)(N)[C@H](O)[C@H](C)O2)Oc2ccc(cc2Cl)[C@H]1O | 1

Let's switch to this compound now.
Data request: I am curious: what MIC-fold improvement vs. vancomycin value has been reported for CN[C@H](CC(C)C)C(=O)N[C@H]1C(=O)N[C@@H](CC(N)=O)C(=O)N[C@H]2C(=O)N[C@H]3C(=O)N[C@H](C(=O)N[C@H](C(=O)NCC(=O)Nc4ccc([N+](=O)[O-])cc4)c4cc(O)cc(O)c4-c4cc3ccc4O)[C@H](O)c3ccc(c(Cl)c3)Oc3cc2cc(c3O[C@@H]2O[C@H](CO)[C@@H](O)[C@H](O)[C@H]2O[C@H]2C[C@](C)(N)[C@H](O)[C@H](C)O2)Oc2ccc(cc2Cl)[C@H]1O ?
Data returned: 1
